Data provenance: patent US9856250B2

study_system: human T-type calcium channels (human Cav3.2) (Homo sapiens (Human))
assay_overview: Antagonistic activity against T-type calcium channels (Cav3.2), Fura2 intracellular calcium assay in HEK293 cells
Assay type: cell-based
Flag rule - IC50 less than 50 nM flags 1.0; the remaining entries get 0.0.

Record excerpt, results attached:
Prompt: Does "O=C(CN1[C@@H]2CC[C@H]1C[C@H](CNC(=O)C13CC4CC(CC1C4)C3)C2)NC1(CO)CCCC1" have IC50 strictly under 50 nM?
Response: 0.0

Prompt: Does the reported IC50 of the following compound sit strictly below 50 nM? "CC(C)(C)NC(=O)CN1[C@@H]2CC[C@H]1C[C@H](CNC(=O)c1cc(F)cc(C#N)c1)C2"
Response: 1.0

Prompt: Consider "CC(C)(C)NC(=O)CN1[C@@H]2CC[C@H]1C[C@H](CNC(=O)C1CCCCC1)C2" . Does its IC50 lie strictly below 50 nM?
Response: 0.0

Others:
Prompt: Item "CC(C)(C)NC(=O)CN1[C@@H]2CC[C@H]1C[C@H](CNC(=O)c1cc(F)cc(Cl)c1)C2" : IC50 beneath 50 nM, strictly?
Response: 1.0

Prompt: Here's an entry: "Cn1cc(C(=O)NC[C@@H]2C[C@H]3CC[C@@H](C2)N3CC(=O)NC(C)(C)C)c2ccccc21" . Is its IC50 below 50 nM?
Response: 0.0

Prompt: Say whether its IC50 is strictly beneath 50 nM. Entry: "Cc1oc2c(c1C(=O)NC[C@@H]1C[C@H]3CC[C@@H](C1)N3CC(=O)NC1(C(F)(F)F)CC1)CCCC2"
Response: 0.0

Prompt: Criterion: IC50 strictly below 50 nM. Is it met by "COc1cc(F)cc(C(=O)NC[C@@H]2C[C@H]3CC[C@@H](C2)N3CC(=O)NC(C)(C)C)c1" ?
Response: 1.0

Prompt: Does the reported IC50 of the following compound sit strictly below 50 nM? "Cn1cc(C(=O)NC[C@@H]2C[C@H]3CC[C@@H](C2)N3CC(=O)NC2(C(F)(F)F)CC2)c2ccccc21"
Response: 0.0

Prompt: Threshold test, IC50 < 50 nM: "CC(C)(C)NC(=O)CN1[C@@H]2CC[C@H]1C[C@H](CNC(=O)CC13CC4CC(CC(C4)C1)C3)C2"
Response: 0.0

Prompt: A record lists "Cc1oc2ccccc2c1C(=O)NC[C@@H]1C[C@H]2CC[C@@H](C1)N2CC(=O)NC(C)(C)C" . Is its IC50 below 50 nM?
Response: 1.0

Prompt: Does the reported IC50 of the following compound sit strictly below 50 nM? "Cc1c(C(=O)NC[C@@H]2C[C@H]3CC[C@@H](C2)N3CC(=O)NC(C)(C)C)c2ccccc2n1C"
Response: 0.0

Prompt: Take the compound "COc1cc(F)c2nc(C[C@@H]3C[C@H]4CC[C@@H](C3)N4CC(=O)NC(C)(C)C)[nH]c2c1" and say whether its IC50 is less than 50 nM.
Response: 0.0

Prompt: State whether 50 nM exceeds IC50 recorded for "COc1ccc2oc(C)c(C(=O)NC[C@@H]3C[C@H]4CC[C@@H](C3)N4CC(=O)NC(C)(C)C)c2c1" .
Response: 0.0

---

study_system: human T-type calcium channels (human Cav3.2) (Homo sapiens (Human), UniProt O95180)
Sequence (O95180 whole entry): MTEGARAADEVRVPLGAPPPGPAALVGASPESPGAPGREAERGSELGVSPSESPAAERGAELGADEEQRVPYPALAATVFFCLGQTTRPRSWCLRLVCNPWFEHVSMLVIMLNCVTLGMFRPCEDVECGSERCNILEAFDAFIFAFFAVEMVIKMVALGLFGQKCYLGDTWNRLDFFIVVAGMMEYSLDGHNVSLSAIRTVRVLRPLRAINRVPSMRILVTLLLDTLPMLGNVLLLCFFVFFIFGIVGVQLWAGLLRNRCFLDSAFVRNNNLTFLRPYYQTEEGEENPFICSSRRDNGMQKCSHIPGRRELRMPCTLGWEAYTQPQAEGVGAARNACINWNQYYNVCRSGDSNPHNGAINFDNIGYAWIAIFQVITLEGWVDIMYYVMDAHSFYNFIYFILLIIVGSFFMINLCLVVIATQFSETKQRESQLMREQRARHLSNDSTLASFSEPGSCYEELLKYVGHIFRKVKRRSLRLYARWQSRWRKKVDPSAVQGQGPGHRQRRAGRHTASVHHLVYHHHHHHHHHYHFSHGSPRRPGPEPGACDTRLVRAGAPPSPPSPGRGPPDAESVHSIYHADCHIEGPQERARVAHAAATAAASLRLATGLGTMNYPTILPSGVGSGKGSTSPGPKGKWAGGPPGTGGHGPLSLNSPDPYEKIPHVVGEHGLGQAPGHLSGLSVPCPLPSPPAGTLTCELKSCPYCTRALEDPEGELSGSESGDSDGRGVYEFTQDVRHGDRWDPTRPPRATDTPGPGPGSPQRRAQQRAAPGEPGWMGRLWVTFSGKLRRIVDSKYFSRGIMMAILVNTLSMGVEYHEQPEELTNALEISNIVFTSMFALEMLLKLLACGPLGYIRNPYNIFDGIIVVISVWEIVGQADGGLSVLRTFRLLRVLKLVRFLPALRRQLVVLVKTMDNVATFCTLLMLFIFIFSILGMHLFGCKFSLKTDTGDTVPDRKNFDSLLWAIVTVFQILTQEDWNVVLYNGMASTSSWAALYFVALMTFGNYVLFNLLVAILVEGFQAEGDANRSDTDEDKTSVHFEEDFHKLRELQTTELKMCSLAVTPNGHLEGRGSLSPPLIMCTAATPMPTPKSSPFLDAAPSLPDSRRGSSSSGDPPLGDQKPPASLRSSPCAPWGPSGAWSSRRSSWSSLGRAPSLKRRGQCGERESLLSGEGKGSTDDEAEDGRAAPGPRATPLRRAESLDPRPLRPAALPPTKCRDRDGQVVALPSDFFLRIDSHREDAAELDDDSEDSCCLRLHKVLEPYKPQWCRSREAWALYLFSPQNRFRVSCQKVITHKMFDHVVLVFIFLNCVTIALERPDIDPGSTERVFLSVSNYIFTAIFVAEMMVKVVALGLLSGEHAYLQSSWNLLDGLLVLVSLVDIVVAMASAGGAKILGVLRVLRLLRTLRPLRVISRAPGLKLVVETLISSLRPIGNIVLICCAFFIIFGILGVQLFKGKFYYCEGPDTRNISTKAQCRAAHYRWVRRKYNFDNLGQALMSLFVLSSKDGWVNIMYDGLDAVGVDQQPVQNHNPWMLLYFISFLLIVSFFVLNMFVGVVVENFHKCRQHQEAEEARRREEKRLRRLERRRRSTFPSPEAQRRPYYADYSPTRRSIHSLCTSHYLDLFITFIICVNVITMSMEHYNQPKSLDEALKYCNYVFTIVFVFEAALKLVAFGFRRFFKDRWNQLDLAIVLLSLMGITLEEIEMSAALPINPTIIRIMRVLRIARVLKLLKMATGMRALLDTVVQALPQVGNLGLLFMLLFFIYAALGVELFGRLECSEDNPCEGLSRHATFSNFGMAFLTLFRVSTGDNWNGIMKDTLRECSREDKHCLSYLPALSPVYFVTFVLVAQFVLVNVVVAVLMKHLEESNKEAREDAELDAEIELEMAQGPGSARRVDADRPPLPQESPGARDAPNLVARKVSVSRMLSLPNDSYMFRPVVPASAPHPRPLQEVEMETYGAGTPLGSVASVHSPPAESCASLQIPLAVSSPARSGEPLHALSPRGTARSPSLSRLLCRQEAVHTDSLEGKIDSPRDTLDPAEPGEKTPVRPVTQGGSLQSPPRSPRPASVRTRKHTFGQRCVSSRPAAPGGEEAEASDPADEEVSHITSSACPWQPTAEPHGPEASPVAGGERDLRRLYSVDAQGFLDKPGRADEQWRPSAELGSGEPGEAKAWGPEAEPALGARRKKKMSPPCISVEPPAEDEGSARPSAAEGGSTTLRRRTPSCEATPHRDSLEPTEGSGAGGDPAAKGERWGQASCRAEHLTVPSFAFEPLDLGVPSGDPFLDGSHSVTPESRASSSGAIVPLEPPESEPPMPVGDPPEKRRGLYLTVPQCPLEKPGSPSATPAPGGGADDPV
assay_overview: Antagonistic activity against T-type calcium channels (Cav3.2), Fura2 intracellular calcium assay in HEK293 cells
Format: cell-based
test_parameters: HEK293 cells stably expressing human Cav3.2; Fura2 fluorescence ratio after calcium chloride addition; read-out: IC50
measured_metric: pIC50
Here pIC50 is given on a logarithmic scale as minus log10 of the concentration in mol/L.

Prompt: State its pIC50 for this molecule: "Cc1ccc(C(=O)NC[C@@H]2C[C@H]3CC[C@@H](C2)N3CC(=O)NC(C)(C)C)s1"
Response: 7.03

---

study_system: human T-type calcium channels (human Cav3.2) (Homo sapiens (Human))
assay_overview: Antagonistic activity against T-type calcium channels (Cav3.2), Fura2 intracellular calcium assay in HEK293 cells
Type: cell-based
test_parameters: HEK293 cells stably expressing human Cav3.2; Fura2 fluorescence ratio after calcium chloride addition; read-out: IC50
IC50 for assorted compounds
Kindly provide the numeric value in nM only, without the unit symbol.

Example cases with answers are listed next.
Prompt: Let me know recorded IC50 for COc1cccc2[nH]c(C[C@H]3C[C@H]4CC[C@@H](C3)N4CC(=O)NC(C)(C)C)nc12 [Example 145] , thanks.
Response: 98

Prompt: Indicate its recorded IC50; the compound in question is CC(C)(C)NC(=O)CN1[C@@H]2CC[C@H]1C[C@H](CNC(=O)c1coc3ccccc13)C2 [Example 11]
Response: 3

Prompt: Indicate its recorded IC50; the compound in question is COc1cc(Cl)cc(C(=O)NC[C@@H]2C[C@H]3CC[C@@H](C2)N3CC(=O)NC(C)(C)C)c1 [Example 53]
Response: 49

Turning to the following compound.
Prompt: Read off the recorded IC50 for CC(C)(C)CNC(=O)C[C@H]1C[C@H]2CC[C@@H](C1)N2CC(=O)NC(C)(C)C [Example 127]
Response: 73

---

Test system: Salmonella typhimurium TA98 and TA100
assay_overview: Reverse mutation test (Ames test), pre-incubation method
Type: cell-based
test_parameters: presence of metabolic activation system (rat liver S9mix (+)); strains TA98 and TA100
measured_metric: Ames test S9 (+)

Prompt: Find the measured Ames test S9 (+) of "CC(C)(C)NC(=O)CN1[C@@H]2CC[C@H]1C[C@H](Cc1nc3c4c(ccc3[nH]1)OCCO4)C2" and report it.
Response: Negative

Prompt: Supply reported Ames test S9 (+) belonging to this compound: "Cc1cc(C(=O)NC[C@@H]2C[C@H]3CC[C@@H](C2)N3CC(=O)NC(C)(C)C)n(C)n1"
Response: Negative

Prompt: Return value of Ames test S9 (+) for input "COc1cccc2[nH]c(C[C@H]3C[C@H]4CC[C@@H](C3)N4CC(=O)NC(C)(C)C)nc12" , no commentary.
Response: Negative

---

Reported pIC50 is given for each of the following compounds.
study_system: human T-type calcium channels (human Cav3.2) (Homo sapiens (Human), UniProt O95180)
assay_overview: Antagonistic activity against T-type calcium channels (Cav3.2), Fura2 intracellular calcium assay in HEK293 cells
Type: cell-based
Note: pIC50 values are expressed as the negative base-10 logarithm of concentration in M.

Prompt: Give the observed pIC50 of "CC(C)(C)NC(=O)CN1[C@@H]2CC[C@H]1C[C@H](CNC(=O)c1ccc(Cl)cc1)C2" for human T-type calcium channels (human Cav3.2) (Homo sapiens (Human), UniProt O95180).
Response: 7.66

Prompt: Please report pIC50 with human T-type calcium channels (human Cav3.2) (Homo sapiens (Human), UniProt O95180) for item "Cc1oc2c(c1C(=O)NC[C@@H]1C[C@H]3CC[C@@H](C1)N3CC(=O)NC(C)(C)C)CCCC2" .
Response: 7.32

Prompt: Would you please give the reported pIC50 of "CC(C)(C)NC(=O)CN1[C@@H]2CC[C@H]1C[C@H](CNC(=O)C(C)(C)Oc1cccc(Cl)c1)C2" with human T-type calcium channels (human Cav3.2) (Homo sapiens (Human), UniProt O95180)?
Response: 7.14

Prompt: Please report the measured pIC50 for "CCc1oc2ccccc2c1C(=O)NC[C@@H]1C[C@H]2CC[C@@H](C1)N2CC(=O)NC(C)(C)C" tested on human T-type calcium channels (human Cav3.2) (Homo sapiens (Human), UniProt O95180).
Response: 8.00

Turning to the following compound.
Prompt: Jot down pIC50 (human T-type calcium channels (human Cav3.2) (Homo sapiens (Human), UniProt O95180)) of "CC(C)(C)NC(=O)CN1[C@@H]2CC[C@H]1C[C@H](CNC(=O)c1cccc(F)c1)C2" .
Response: 7.41

---

Tested on: Salmonella typhimurium TA98 and TA100
assay_overview: Reverse mutation test (Ames test), pre-incubation method
Format: cell-based
test_parameters: presence of metabolic activation system (rat liver S9mix (+)); strains TA98 and TA100
measured_metric: Ames test S9 (+)

# annotated cases, reported Ames test S9 (+) shown
Prompt: Output measured Ames test S9 (+) for this item: COc1ccc(OC)c2[nH]c(C[C@@H]3C[C@H]4CC[C@@H](C3)N4CC(=O)NC(C)(C)C)nc12 [Example 172]
Response: Negative

Prompt: Identify the reported Ames test S9 (+) for the following entry. Cc1cccc2[nH]c(CC3CCN(CC(=O)NC(C)(C)C)CC3)nc12 [Control Compound 1, reference compound]
Response: Positive

Prompt: Give the value of Ames test S9 (+) reported for the following: CC(C)(C)NC(=O)CN1CCC(Cc2nc3ccc4c(c3[nH]2)OCCO4)CC1.Cl.Cl [Control Compound 3, reference compound]
Response: Positive

Prompt: Please give the documented Ames test S9 (+) of COc1cccc2[nH]c(CC3CCN(CC(=O)NC(C)(C)C)CC3)nc12 [Control Compound 2, reference compound]
Response: Positive

Prompt: Retrieve Ames test S9 (+) measured for COc1ccc2[nH]c(C[C@@H]3C[C@H]4CC[C@@H](C3)N4CC(=O)NC(C)(C)C)nc2c1OC [Example 155] and print it.
Response: Negative

Prompt: Using known records, supply Ames test S9 (+) for CC(C)(C)NC(=O)CN1[C@@H]2CC[C@H]1C[C@H](CNC(=O)c1cc(F)cc(Cl)c1)C2 [Example 54]
Response: Negative

Would you kindly look at the next entry?
Prompt: State its Ames test S9 (+): CC(C)(C)NC(=O)CN1[C@@H]2CC[C@H]1C[C@@H](CC(=O)NC13CC4CC(CC(C4)O1)C3)C2.Cl [Example 152]
Response: Negative
